tested on: MALME-3M melanoma; experiment: NCI-60 one-dose screen, 48 h (100 = growth as untreated, 0 = no growth, -100 = all killed); conditions: 10 µM unless noted
Compounds without any hit were thinned out: in the full panel of roughly 83,000, 20% have a hit.
readout.kind: growth (%)
Output spec: scalar in %, unitless text.

Enquiry: Report growth, nothing else, for this compound: COc1cc2c(cc1OCCCOc1ccc(-c3cc4ccccc4c4ccccc34)cc1)N=C[C@@H]1CCCN1C2=O
Return: -57.9

Enquiry: Please give measured growth of the following entry: c1cnc2n[nH]c(Nc3ncnc4c3sc3ncccc34)c2c1
Return: 92.9

Enquiry: Tell me growth reported for CN1C(=O)C(=Cc2cn(Cc3ccccc3)c3ccc(Br)cc23)C(=O)N(C)C1=O
Return: 113

Enquiry: For CC1=C(C(=O)Nc2ccccc2)C(c2ccc3c(c2)OCCO3)NC(=O)N1 (stereo unspecified) , write its growth.
Return: 96.9

Enquiry: Return reported growth. Input compound: COc1ccc2c3c(c(OCCCN(C)C)nc2c1)-c1ccc(Cl)cc1C3=O
Return: -57.5

Enquiry: Item CC(C)C/C(=N\NC(=O)c1ccncc1)c1cc(Cl)ccc1O : provide growth
Return: 21.7

Enquiry: Supply recorded growth for CSc1nc2c(c(=O)n1C)C(c1ccccc1)C1=C(N2)/C(=C/c2ccccc2)CCC1 (stereo unspecified) here.
Return: 70.4

Enquiry: Answer with reported growth of NC(=O)c1ncn([C@@H]2O[C@H](CO)[C@@H](O)[C@H]2O)n1
Return: 92.7

Enquiry: Determine from records and report growth for COc1cc(NC(=O)c2cc3ccccc3cc2O)c(OC)cc1Cl
Return: -23.7

Enquiry: Entry O=C(CCc1nnc(SCc2ccccc2)s1)c1nc2ccccc2[nH]1 needs its growth filled in; supply it.
Return: 83.8

Enquiry: Give recorded growth. C[N+]1(CCc2ccccc2)CCC(CCC2CC[N+](C)(CCc3ccccc3)CC2)CC1 (stereo unspecified)
Return: 118

Enquiry: Provide measured growth value, entry: COc1ncc(-c2ccc3nccc(C#CCN4CCN(S(C)(=O)=O)CC4)c3c2)cc1NS(=O)(=O)c1ccc(F)cc1F
Return: -32.3

Enquiry: Fill in reported growth for this entry: Oc1[nH]c2ccccc2c1/C=c1/ccc2c(c1)N=C(c1cc(F)cc(F)c1)N=2
Return: 101

Enquiry: Dear colleague, please send me the reported growth for COc1cc(-c2cc(C(=O)Nc3nc4ccccc4s3)nc3cc(-c4ccccc4)nn23)cc(OC)c1OC when you can.
Return: 28.5

Enquiry: Return growth for the following compound: CN=C(NC)N/N=C(C)\C=N\NC(=NC)NC
Return: 105

Enquiry: Using known records, supply growth for NC(=O)N/N=C/c1ccc(Br)o1
Return: 106

Enquiry: // Input: COc1cc(C2C=C(c3ccc(C)cc3)Nc3nc(SC)[nH]c(=O)c32)ccc1Oc1ccnc2cc(Cl)ccc12 (stereo unspecified) . Output its growth only.
Return: 80.1

Enquiry: Provide one value: measured growth of C[n+]1c2ccccc2c(Nc2ccc(N3CCCCC3)cc2)c2[nH]c3ccccc3c21
Return: -77.8

Enquiry: State, in one line, measured growth of N#CCCCCCn1c2ccccc2c2c3c(c4c5ccccc5[nH]c4c21)C(=O)N(O)C3=O
Return: -34.6

Enquiry: Return growth for the following compound: O=C1N(C2CCCCC2)C(=O)N1C1CCCCC1
Return: -16.9

Enquiry: Report growth for O=C(Nc1cccc(-n2cc(-c3ccncc3)c(-c3ccc(O)c(Cl)c3)n2)c1)Nc1ccc(Cl)c(C(F)(F)F)c1
Return: -24

Enquiry: State its growth for this compound: CN(CC(=O)N(Cc1ccc(C2CCCCC2)cc1)c1ccc(C(=O)O)cc1)S(=O)(=O)c1c(F)c(F)c(F)c(F)c1F
Return: 62

Enquiry: Using the record for Cn1cc(-c2nc(-c3c[nH]c4ncc(F)cc34)cs2)c2cccnc21 , state its measured growth.
Return: 101

Enquiry: Look up and state reported growth for N#Cc1ccc(NC(=O)Nc2ccc(Oc3ccc(NC(=O)Nc4ccc(C#N)cc4)cc3)cc2)cc1
Return: 54.4

Enquiry: In one line, give reported growth of the entry CC(C)(C)c1cc(O)c(O)c(C(C)(C)C)c1 .
Return: 67

Enquiry: Supply recorded growth for Cc1nn(-c2ccc(Br)cc2)c2nc3c(nc12)C(=O)C(=O)c1ccccc1-3 here.
Return: 91.2

Enquiry: Please give the documented growth of O=C1c2nsnc2C(=O)c2c(F)c(F)c(F)c(F)c21
Return: -45.9

Enquiry: Give the measured growth for Nc1ccc2c3c(cccc13)-c1ccccc1-2
Return: 98.4

Enquiry: Quick one: give measured growth for C=C1CC[C@@H]2[C@](C)(COC(C)=O)[C@H](OC(C)=O)CC[C@@]2(C)[C@@H]1CC(Nc1ccc(S(=O)(=O)Nc2cc(C)on2)cc1)C1=CCOC1=O (stereo partly specified)
Return: 56.6

Enquiry: Consider the compound COc1ccc2nccc(/C=C/c3ccnc4ccc(OC)cc34)c2c1 . State its measured growth.
Return: 146

Enquiry: Give a short answer stating reported growth for COC(=O)[C@]1(CCSC)N[C@H](c2cn(-c3ccccc3)nc2C)[C@@H]2C(=O)N(c3ccccc3)C(=O)[C@@H]21 .
Return: 105

Enquiry: Give the value of growth reported for the following: c1ccc(-n2nnnc2-c2cccc3ccccc23)cc1
Return: 34.8

Enquiry: Please indicate growth recorded for O=C(N1CCC(CN=c2cc3n(-c4ccc(Cl)cc4)c4ccccc4nc-3cc2Nc2ccc(Cl)cc2)CC1)N1CC1
Return: -72.5

Enquiry: Determine from records and report growth for Cc1ccc(C(C)C)cc1NC(=O)Nc1ccc([N+](=O)[O-])cc1
Return: 6.64

Enquiry: State its growth: Cc1cc(=O)n2n1-c1ccc(Cl)cc1NC(=O)C2
Return: 103

Enquiry: Fill in growth for record O=C1Nc2ccccc2C12Nc1cc(Cl)ccc1S2 (stereo unspecified)
Return: 81.8

Enquiry: Give me measured growth, please, for this compound: CC12CCCCC1C(C(N)=O)C(=O)O2 (stereo unspecified)
Return: 120

Enquiry: Give recorded growth. CCOC(=O)c1c(C)c(C(=O)OCC)n(C)c1C
Return: 112

Enquiry: Read the entry Cn1cnc([N+](=O)[O-])c1S(=O)(=O)Oc1ccc(Cl)cc1 and write its reported growth.
Return: -70.4

Enquiry: Identify measured growth associated with CCC(C)CC(CC)NCCN1CCN(C(CC)CC(C)CC)C1=S (stereo unspecified)
Return: -33.8

Enquiry: Dear colleague, please send me the reported growth for COc1ccc2c(c1)nc(N)c1c3ccccc3cn21 when you can.
Return: 65.2

These entries and their values trace back to PubChem BioAssay (NCI).
